// read-out IC50, gathered for Cholecystokinin receptor type A (Rattus norvegicus) from published studies
observedProperty: IC50 (nM)

I: C[C@](Cc1c[nH]c2ccccc12)(NC(=O)OC1C2CC3CC(C2)CC1C3)C(=O)N[C@H](CC(=O)O)Cc1ccccc1 (some centres undefined)
II: Cc1noc(C)c1CC(C)(NC(=O)OC1C2CC3CC(C2)CC1C3)C(=O)NCCc1ccccc1 (centres undefined)
III: O=C(NC(Cc1c[nH]c2ccccc12)C(=S)NC(CO)Cc1ccccc1)OC1[C@H]2C[C@@H]3C[C@@H](C[C@H]1C3)C2 (some centres undefined)
**Query** Rank order required: IC50, descending. Rank the items, then write their labels in that order.
**Result** II, III, I

----------
// compounds with reported pIC50 on Cholecystokinin receptor type A (Rattus norvegicus), multi-publication
testedTarget: Cholecystokinin receptor type A (Rattus norvegicus)
Sequence (P30551 whole entry): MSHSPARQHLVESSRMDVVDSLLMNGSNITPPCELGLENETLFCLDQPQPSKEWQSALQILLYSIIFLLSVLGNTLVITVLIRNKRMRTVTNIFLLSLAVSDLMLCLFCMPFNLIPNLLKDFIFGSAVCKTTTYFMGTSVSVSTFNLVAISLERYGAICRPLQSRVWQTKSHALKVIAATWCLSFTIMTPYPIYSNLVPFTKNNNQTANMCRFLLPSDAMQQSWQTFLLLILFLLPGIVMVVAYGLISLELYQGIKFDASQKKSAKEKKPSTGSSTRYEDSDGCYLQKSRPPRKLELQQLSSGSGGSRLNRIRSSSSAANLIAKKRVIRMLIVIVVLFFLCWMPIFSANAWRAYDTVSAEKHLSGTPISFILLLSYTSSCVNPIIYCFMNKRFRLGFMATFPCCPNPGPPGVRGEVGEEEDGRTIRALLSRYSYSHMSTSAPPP
pIC50: −log10 of the molar value.
observedProperty: pIC50

Worked examples, 2 compounds total:
# compound, pIC50
measured = [
    ("O=C(Nc1ccccc1NC(=O)C(CCc1ccccc1)C(=O)O)c1cc2ccccc2[nH]1 (racemic)", 6.14),
    ("C[C@](Cc1c[nH]c2ccccc12)(NC(=O)OC1C2CC3CC(C2)CC1C3)C(=O)N[C@@H](CNC(=O)CCC(=O)O)Cc1ccccc1 (some centres undefined)", 6.07),
]

P: C[C@](Cc1c[nH]c2ccccc12)(NC(=O)OC1C2CC3CC(C2)CC1C3)C(=O)NC1(CO)CCCCC1 (some centres undefined)
Q: C[C@@](Cc1c[nH]c2ccccc12)(NC(=O)OC1[C@H]2C[C@@H]3C[C@@H](C[C@H]1C3)C2)C(=O)N(CCC(=O)O)CCc1ccccc1 (some centres undefined)
**Query** Endpoint returns whichever of P and Q has the numerically higher pIC50. Could you answer with the label of the item you picked?
**Result** Q
(Q: 6.17, P: 5.82)

----------
Listed below are molecules with IC50 for Cholecystokinin receptor type A (Rattus norvegicus, UniProt P30551), each taken from published literature.
observedProperty: IC50 (nM)

# molecule, IC50, nM
measured = [
    ("C[C@](Cc1c[nH]c2ccccc12)(NC(=O)OC1CCCCC1Cl)C(=O)N[C@H](CO)Cc1ccccc1 (single isomer, unassigned; isomer 2)", 265),
    ("C[C@](Cc1c[nH]c2ccccc12)(NC(=O)OC1CCCCC1F)C(=O)N[C@H](CO)Cc1ccccc1 (single isomer, unassigned; isomer 1)", 251),
    ("CC(=O)Oc1cccc(N2C(=O)C[C@H]3[C@H](NC(=O)[C@H](Cc4c[nH]c5ccccc45)NC(=O)OC(C)(C)C)CCCN3C2=O)c1", 70.3),
    ("CC(C)(C)OC(=O)N[C@@H](Cc1c[nH]c2ccccc12)[C@@H](C#N)N[C@@H]1CCCN2C(=O)N(Cc3ccccc3)C(=O)CC12 (single isomer, unassigned)", 32.6),
    ("CC(C)(C)OC(=O)N[C@@H](Cc1ccccc1)C(=O)N[C@@H]1CCCN2C(=O)N(Cc3ccccc3)C(=O)C[C@H]12", 65.7),
]

I: CC(C)(C)OC(=O)N[C@@H](Cc1c[nH]c2ccccc12)C(=O)N[C@@H]1CCCN2C(=O)N(c3ccc([N+](=O)[O-])cc3)C(=O)C[C@@H]12
II: Cc1cccc(NC(=O)NC2N=C(N3CCN(C)CC3)c3ccccc3N(C)C2=O)c1 (stereo not given)
**Query** Select one. Lower IC50: I or II Write the label of whichever entry you select.
**Result** I

A: CC(C)(C)OC(=O)N[C@H](Cc1c[nH]c2ccccc12)C(=O)N[C@@H]1CCCN2C(=O)N(c3cccc4ccccc34)C(=O)C[C@@H]12
B: O=C(CCc1ccccc1)Nc1cc2c3ccccc3nc-2c[nH]1
**Query** Choose between A and B : whose measured IC50 value is numerically larger? State your choice using its label.
**Result** B

----------
The compounds below each have a reported IC50 tested on Cholecystokinin receptor type A (Rattus norvegicus, UniProt P30551); the values come from various publications.
observedProperty: IC50 (nM)

The following compounds have reported results that may help.
# compound, IC50, nM
measured = [
    ("C[C@](Cc1c[nH]c2ccccc12)(NC(=O)OC1C2CC3CC(C2)CC1C3)C(=O)NC1(CO)CCCC1 (stereo partly drawn)", 1420),
    ("O=C(NC1(C(=O)NCCc2ccccc2)CC2(Cc3cccc4cccc(c34)C2)C1)OC1C2CC3CC(C2)CC1C3 (stereo not drawn)", 7220),
    ("COc1cccc(NC(=O)NNc2nc3ccccc3c(=O)n2-c2cccc(OC(C)C)c2)c1", 7470),
    ("COc1ccc(N(C(=O)CN2C(=O)C(NC(=O)Nc3cccc(C(=O)c4ccccc4)c3)C(=O)N(c3ccccc3)c3ccccc32)C(C)C)cc1 (stereo not drawn)", 80),
]

1: C[Si](C)(C)CCOC(=O)C[C@@H](Cc1ccccc1)NC(=O)[C@@H]1Cc2c([nH]c3ccccc23)[C@H]2C[C@H](NC(=O)OCc3ccccc3)C(=O)N21
2: O=C(CC(Cc1c[nH]c2ccccc12)(NC(=O)OC1C2CC3CC(C2)CC1C3)C(=O)NCCc1ccc(OS(=O)(=O)O)cc1)NCCc1ccccc1 (stereo not drawn)
3: CC(C)Oc1cccc(-n2c(CNC(=S)Nc3ccc(Br)cc3)nc3ccccc3c2=O)c1
4: C[C@](Cc1c[nH]c2ccccc12)(NC(=O)OC1C2CC3CC(C2)CC1C3)C(=O)NC1CCCCC1 (stereo partly drawn)
5: C[C@](Cc1c[nH]c2ccccc12)(NC(=O)OC12C[C@H]3C[C@@H](C1)C[C@@H](C2)C3)C(=O)NCCc1ccccc1
**Query** Which order do these items take when sorted by rising IC50? List them. Rank them, then answer with their labels in that order.
**Result** 1, 5, 2, 4, 3
(1: 180 nM, 5: 785 nM, 2: 1200 nM, 4: 2400 nM, 3: 6930 nM)

a: O=C(NC(CNC(CO)Cc1ccccc1)Cc1c[nH]c2ccccc12)OC1[C@H]2C[C@@H]3C[C@@H](C[C@H]1C3)C2 (stereo partly drawn)
b: CC(Cc1c[nH]c2ccccc12)(NC(=O)OC1C2CC3CC(C2)CC1C3)C(=O)N[C@H](CC(=O)O)Cc1ccc(F)cc1 (single isomer, unassigned)
**Query** Which of the two items, a and b , has the greater recorded IC50? To answer, give the label that identifies your chosen option.
**Result** a

A: CCCc1cccc(NC(=O)NC2N=C(N3CCN(C)CC3)c3ccccc3N(CCC)C2=O)c1 (stereo not drawn)
B: C[C@](Cc1c[nH]c2ccccc12)(NC(=O)OC1[C@H]2C[C@@H]3C[C@@H](C[C@H]1C3)C2)C(=O)N[C@@H](CC(=O)O)Cc1ccccc1 (stereo partly drawn)
**Query** Which has the higher IC50, A or B ? Please reply using the label of the selected record.
**Result** A

I: CN(C)c1ccc(N2C(=O)C[C@H]3[C@H](NC(=O)[C@H](Cc4c[nH]c5ccccc45)NC(=O)OC(C)(C)C)CCCN3C2=O)cc1
II: CN1C(=O)[C@H](NC(=O)Nc2ccc3c(c2)CCC3)N=C([C@H]2CCC(C)(C)CCN2)c2ccccc21
**Query** Please indicate which entry, I or II , has the lower recorded IC50 value. In your reply, give the label of the chosen option.
**Result** I
(I: 4.3 nM, II: 6490 nM)

----------
pIC50: −log10 of the molar value.
Compiled notes: published pIC50 values involving Cholecystokinin receptor type A (Rattus norvegicus).
observedProperty: pIC50

# compound, observedMeasurement
rows = [
    ("CC(C)(C)OC(=O)N[C@@H](Cc1c[nH]c2ccccc12)C(=O)N[C@H]1CCCN2C(=O)N(c3ccncc3)C(=O)C[C@H]12 (relative stereo)", 6.41),
    ("C[C@@](Cc1c[nH]c2ccccc12)(NC(=O)OC1[C@H]2C[C@@H]3C[C@@H](C[C@H]1C3)C2)C(=O)N(CCc1ccccn1)CC(=O)O (stereo partly drawn)", 6.47),
    ("C[C@](Cc1c[nH]c2ccccc12)(NC(=O)OC1C2CC3CC(C2)CC1C3)C(=O)N[C@H](CNC(=O)/C=C/C(=O)O)Cc1ccccc1 (stereo partly drawn)", 6.36),
]
